This collection of values is drawn from PubChem BioAssay AID1159580.

Experiment: chemical genetic growth profiling, strain panel (AID 1159580);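 also: tested at 20 µM; growth read once vehicle control cultures reached saturation at 30 °C; 1 = growth at the plate median or of vehicle wells; lower values mean less growth of the strain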
Settings: S. cerevisiae deletion strains, growth OD, locus YHR027C, strain rpn1, active compounds read low
In all, about 5,500 compounds went through this assay and about 2,000 (36%) were called active. Not shown: some 18% with an inconclusive outcome. The list shows a part of the results.
reportedProperty: normalized growth
No unit in the answer, please; the number alone is enough.

molecule=O=c1[nH]cnc2nc[nH]c12 reportedproperty="normalized growth" quantitativereadout=1.01

Query: Reported normalized growth, molecule c1ccc2c(c1)[nH]c1cnccc12 : ____
Result: 0.993

Query: // repeat for CC(=O)O[C@H]1CC2CCC3C(CC[C@@]4(C)C3C[C@H]([N+]3(C)CCCCC3)[C@@H]4OC(C)=O)[C@@]2(C)C[C@@H]1[N+]1(C)CCCCC1 (stereo not given in full) and report
Result: 1.01

====

Assay: chemical genetic growth profiling, strain panel (AID 1159580)
Conditions: S. cerevisiae deletion strains, growth OD, locus YBL061C, strain skt5
The campaign covered roughly 5,500 compounds. About 2,000 (36%) were called active. Inconclusive results (about 18%) are left out. Rule as the data show it: active = normalized growth mostly below about 0.91 (no sharp cut-off); inconclusive = no clear call, values can overlap the other calls; inactive = mostly above about 0.92. This is one part of the list.
Outcomes you can answer with include only these: 1 for active, -1 for inactive

molecule=O=C(O)c1cc2cc(Cl)ccc2[nH]1 classification=-1

Query: Lab log entry: FC(F)(F)COCC(F)(F)F — outcome as called in the assay?
Result: -1

Query: // repeat for CN1CCN(C(c2ccccc2)c2ccccc2)CC1 and report
Result: -1

Query: // repeat for Cc1cccc(N(C)C(=S)Oc2ccc3ccccc3c2)c1 and report
Result: -1

Query: // repeat for O=c1[nH]cnc2nc[nH]c12 and report
Result: -1

====

Experiment: chemical genetic growth profiling, strain panel (AID 1159580)
Conditions: S. cerevisiae deletion strains, growth OD, locus YLR221C, strain rsa3, active compounds read low
Screen size: about 5,500 compounds; about 2,000 (36%) were called active. About 18% were inconclusive and are not listed. This is one part of the list.
List of normalized growth values.
No unit in the answer, please; the number alone is enough.

compound=COc1cc2c(cc1-c1coc3c4c(c(OC)cc3c1=O)OC(C)(C)C=C4)OCO2 reportedproperty="normalized growth" quantitativereadout=1.01
compound=O=c1[nH]cnc2nc[nH]c12 reportedproperty="normalized growth" quantitativereadout=1.02
compound=CCS(=O)(=O)CCn1c([N+](=O)[O-])cnc1C reportedproperty="normalized growth" quantitativereadout=0.989

Now take the following compound into account.
Query: Reported normalized growth, compound COC(=O)C[C@H]1C(C)(C)[C@@H](OC(C)=O)[C@@H]2CC3C4CC(=O)O[C@@H](c5ccoc5)[C@]4(C)CCC3[C@@]1(C)C2=O (stereo not given in full) : ____
Result: 0.999

====

Experiment: chemical genetic growth profiling, strain panel (AID 1159580)
Conditions: S. cerevisiae deletion strains, growth OD, locus YJL095W, strain BCK1, active compounds read low
The whole screen tested about 5,500 compounds, of which about 2,000 (36%) were called active. Another 18% or so got no clear call; they are omitted. The list shows a part of the results.
List of normalized growth values.
No unit in the answer, please; the number alone is enough.

molecule=CC1=C2[C@](C)(C=CC1=O)C[C@H](O)[C@H]1[C@H](C)C(=O)O[C@]21C reportedproperty="normalized growth" quantitativereadout=1.01

Query: Reported normalized growth, molecule Oc1ccc(-n2nnnc2SCc2ccc(OC(F)(F)F)cc2)cc1 : ____
Result: 0.597

Query: // repeat for CCCCCc1ccc(-c2nc(SCC(C)=O)n[nH]2)cc1 and report
Result: 0.658

Query: // repeat for N#C/C(=C\C=C\c1ccccc1)c1nc2ccccc2[nH]1 and report
Result: 0.729

Query: // repeat for COc1cc(OC)cc(OC)c1 and report
Result: 1.01

Query: // repeat for Cc1nc([N+](=O)[O-])cn1CC(=O)c1ccc(Cl)cc1 and report
Result: 1.02

Query: // repeat for Cn1c([N+](=O)[O-])cnc1COC(N)=O and report
Result: 1.02

====

Assay: chemical genetic growth profiling, strain panel (AID 1159580);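 also: tested at 20 µM; growth read once vehicle control cultures reached saturation at 30 °C; 1 = growth at the plate median or of vehicle wells; lower values mean less growth of the strain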
Details: S. cerevisiae deletion strains, growth OD, locus YJL164C, strain tpk1
Screen size: about 5,500 compounds; about 2,000 (36%) were called active. Roughly 18% stayed inconclusive and do not appear here. Cut-off read from the data, not from the text of the source: active = normalized growth mostly below about 0.91 (no sharp cut-off); inconclusive = no clear call, values can overlap the other calls; inactive = mostly above about 0.92. Some of the results follow.
Outcomes you can answer with include only these: active, inactive

Here are 3 compounds together with their reported answers.
compound="CC(=O)Oc1ccc2c(c1)CCC1C2CC[C@@]2(C)C1CC[C@@H]2OC(C)=O (some centres undefined)" classification=inactive
compound=CC1(C)C=Cc2c(cc3occ(-c4ccc5c(c4)OCO5)c(=O)c3c2O)O1 classification=inactive
compound=OCCN1CCN(CCCN2c3ccccc3Sc3ccc(Cl)cc32)CC1 classification=inactive

Query: Lab log entry: CCC(=O)O[C@H]1CCC2C3CCc4cc(O)ccc4C3CC[C@@]21C (some centres undefined) — outcome as called in the assay?
Result: active

Query: // repeat for Cc1cc(C)nc(NS(=O)(=O)c2ccc(N)cc2)n1 and report
Result: inactive

Query: // repeat for COc1ccc2c(=O)c(-c3cc4c(cc3OC)OCO4)coc2c1 and report
Result: inactive

Query: // repeat for C[C@]12C=CC(=O)C=C1CCC1C2C(=O)C[C@@]2(C)C1CC[C@]2(O)C(=O)CO (some centres undefined) and report
Result: inactive

Query: // repeat for CN1Cc2c(N)cccc2C(c2ccccc2)C1 (centres undefined) and report
Result: inactive

Query: // repeat for O=c1[nH]cnc2nc[nH]c12 and report
Result: inactive

Query: // repeat for C[N+]1(C)CCc2cc3c(cc2[C@H]1C1OC(=O)c2c1ccc1c2OCO1)OCO3 (some centres undefined) and report
Result: inactive

Query: // repeat for CN1CCN(CCCN2c3ccccc3Sc3ccc(Cl)cc32)CC1 and report
Result: active

Query: // repeat for CC(C)=CCOc1cc2oc(=O)ccc2cc1O and report
Result: inactive

Query: // repeat for Cc1c(N(C)CS(=O)(=O)O)c(=O)n(-c2ccccc2)n1C and report
Result: inactive

Query: // repeat for c1coc(CNc2ncnc3nc[nH]c23)c1 and report
Result: inactive

Query: // repeat for COc1cc2ccc(=O)oc2cc1O and report
Result: inactive

Query: // repeat for O=c1n(CCCN2CCN(c3cccc(Cl)c3)CC2)nc2ccccn12 and report
Result: inactive

Query: // repeat for CC(C)=CCOc1c2occc2cc2ccc(=O)oc12 and report
Result: active

Query: // repeat for COc1ccc2c(c1)[nH]c1c(C)nccc12 and report
Result: inactive

Query: // repeat for FC(F)(F)COCC(F)(F)F and report
Result: inactive

====

Test: chemical genetic growth profiling, strain panel (AID 1159580);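 also: tested at 20 µM; growth read once vehicle control cultures reached saturation at 30 °C; 1 = growth at the plate median or of vehicle wells; lower values mean less growth of the strain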
Settings: S. cerevisiae deletion strains, growth OD, locus YMR263W, strain SAP30
Among all 5,500 compounds or so, about 2,000 (36%) were called active. Not shown: some 18% with an inconclusive outcome. No stated cut-off is given here; in the data, active means normalized growth mostly below about 0.91 (no sharp cut-off); inconclusive means no clear call, values can overlap the other calls; inactive means mostly above about 0.92. This is one part of the list.
Outcomes you can answer with include only these: active, inactive

compound="c1ccc(C2CN3CCSC3=N2)cc1 (stereo unspecified)" classification=inactive
compound=FC(F)(F)c1ccc(-n2cncn2)nc1 classification=inactive
compound=COc1ccc(-n2nc(C(F)(F)F)cc2-c2ccc(Cl)cc2)cc1 classification=inactive

Query: Lab log entry: CC(=O)OC1CCC23C(=O)OC45CCC(C6=CC(=O)OC6)C4(C)CCC2C5CCC3(O)C1 (stereo unspecified) — outcome as called in the assay?
Result: inactive

Query: // repeat for Nc1ncnc2c1ncn2[C@@H]1O[C@H](CO)[C@@H](O)[C@@H]1O and report
Result: inactive

Query: // repeat for CNCCNS(=O)(=O)c1cccc2cnccc12 and report
Result: inactive

====

Assay: chemical genetic growth profiling, strain panel (AID 1159580);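 also: tested at 20 µM; growth read once vehicle control cultures reached saturation at 30 °C; 1 = growth at the plate median or of vehicle wells; lower values mean less growth of the strain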
Settings: S. cerevisiae deletion strains, growth OD, locus YPR141C, strain kar3, active compounds read low
Among all 5,500 compounds or so, about 2,000 (36%) were called active. Inconclusive results (about 18%) are left out. The list shows a part of the results.
List of normalized growth values.
No unit in the answer, please; the number alone is enough.

compound="C[C@]12C=CC(=O)C=C1CCC1C2CC[C@]2(C)C(=O)CCC12 (some centres not stated)" reportedproperty="normalized growth" quantitativereadout=0.982
compound=COC(=O)C1=CO[C@@H](O[C@@H]2O[C@H](CO)[C@@H](O)[C@H](O)[C@H]2O)[C@@H]2[C@@H](C)[C@@H](O)C[C@H]12 reportedproperty="normalized growth" quantitativereadout=0.977
compound="C[N+]1(C)C2CC[C@H]1CC(OC(=O)C(O)c1ccccc1)C2 (some centres not stated)" reportedproperty="normalized growth" quantitativereadout=1.02
compound=CCOc1ccc(Cc2nccc3cc(OCC)c(OCC)cc23)cc1OCC reportedproperty="normalized growth" quantitativereadout=0.974
compound="CC1=C(C(=O)O)N2C(=O)[C@@H](NC(=O)[C@H](N)C3=CCC=CC3)C2SC1 (some centres not stated)" reportedproperty="normalized growth" quantitativereadout=0.988

Query: Reported normalized growth, compound C[C@]12C=CC(=O)C=C1CCC1C2C(=O)C[C@@]2(C)C1CC[C@]2(O)C(=O)CO (some centres not stated) : ____
Result: 0.98

Query: // repeat for CCS(=O)(=O)CCn1c([N+](=O)[O-])cnc1C and report
Result: 1.02
